Assay: recombinant barcode read abundance after kanamycin selection (control-corrected) (log10(CPM+1)); higher = more efficient recombination; sequences stand for … in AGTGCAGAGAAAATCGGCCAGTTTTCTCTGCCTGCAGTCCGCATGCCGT…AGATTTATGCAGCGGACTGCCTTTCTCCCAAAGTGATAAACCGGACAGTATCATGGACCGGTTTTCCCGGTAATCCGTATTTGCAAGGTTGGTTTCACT; site = the 11-nt target;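 also: IS621 recombinase and bridge RNA in Escherichia coli cells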
Values of recombinant barcode read abundance (log10) greater than or equal to 0.4 map to condition met; values below map to condition not met.

The following sequences have reported results that may help.
* CCAGGGACTTGGGTTCTAACCTGTTGCCT (site CCAAGGACTAG) | condition met
* CACCCTTCTTGGGTTCTAACCTGTTGCTC (site CACCCTTCTGA) | condition met
* TCGATCCCTTGGGTTCTAACCTGTTGCCT (site TCCATCCCTAG) | condition not met
* CCTATAGCTTGGGTTCTAACCTGTTGCTT (site CCTATAGCTAA) | condition not met
* GCGGGATCTTGGGTTCTAACCTGTTGCCT (site ACGGGATCTAG) | condition met

Assess whether reported recombinant barcode read abundance (log10) for ACGCACACTTGGGTTCTAACCTGTTGCCT (site TCGCACACTAG) sits at 0.4 or higher.
condition not met

Assess whether reported recombinant barcode read abundance (log10) for GGCTCCTCTTGGGTTCTAACCTGTTGCCT (site TGCTCCTCTAG) sits at 0.4 or higher.
condition not met
